Test system: excised human nerve tissue (or nerve extracts)
Test: Phage display library screening (Example 2), NEB tissue-binding peptides: nerve tissue and nerve extracts versus muscle
Details: unique sequence count, tissue target: nerve extract, peptides not binding muscle extracts
Procedure: Phage display library screens were used to identify peptides that bind to target proteins (including specific laminin trimers) that are expressed in human nerves, as described in Table 3. These screens were also carried out to identify peptides that could bind selectively to nerves versus muscle. Such peptides could therefore be useful for systemic in-vivo labeling of nerves during fluorescence assisted surgery. […]
Under this convention, class 1 denotes Count Nerve Extract strictly below 20 and class 0 denotes Count Nerve Extract at or above 20.

Solved cases (2 shown):
chain	label
SEPIEKGSRTIV	class 1
AIMSYNSPWIQG	class 1

Item LQTHSITYRHER : Count Nerve Extract beneath 20, strictly? class 1

Item WVGPDIIAQMRI : Count Nerve Extract beneath 20, strictly? class 1

----------
test system: Human Myelin PLP; assay: Phage display library screening (Example 1, Power BI analysis), binding to Human Myelin PLP; settings: R3 Myelin PLP, NextGen sequencing count of phage sequences distinct for this target
Label 1 (yes) when Count is at or above 40; anything below gets 0 (no).

Solved cases (4 shown):
substance	target or test system	label
NPNWRTI (R3 Myelin PLP-binding peptide)	Human Myelin PLP	0 (no)
YTPMGTG (R3 Myelin PLP-binding peptide)	Human Myelin PLP	1 (yes)
SMWSQFR (R3 Myelin PLP-binding peptide)	Human Myelin PLP	0 (no)
YPKLWTY (R3 Myelin PLP-binding peptide)	Human Myelin PLP	0 (no)

Please look at the following substance next.
Dear colleague, could you confirm whether DTSRTME (R3 Myelin PLP-binding peptide) has Count at or above 40? 0 (no)

----------
biological target: Human Myelin Basic Protein (Homo sapiens, UniProt P02686); assay: Phage display library screening (Example 2, Python script analysis), binding to Human Myelin Basic Protein; parameters: Enzo 200-606-M001 from human; purchased Enzo 200-606-M001; host or cells: human brain (tissue-derived); details: R3 Myelin Basic Protein; combined unique sequence count, Python/R script analysis
Sequence (P02686 134-304): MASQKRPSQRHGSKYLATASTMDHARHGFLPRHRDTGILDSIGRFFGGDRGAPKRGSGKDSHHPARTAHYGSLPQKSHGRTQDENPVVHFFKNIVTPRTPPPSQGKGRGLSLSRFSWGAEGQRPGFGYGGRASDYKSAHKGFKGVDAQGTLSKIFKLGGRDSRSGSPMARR
Property: Count; scope: individual substances
The response must contain the number and no unit.

Here is how some substances turned out for Count.
substance	quantitative readout
TGPSSAV (R3 Myelin Basic Protein-binding peptide)	6
ARVPNPL (R3 Myelin Basic Protein-binding peptide)	6
ALGTRPL (R3 Myelin Basic Protein-binding peptide)	7
INFPFAV (R3 Myelin Basic Protein-binding peptide)	6

Fill in Count for AILTRPP (R3 Myelin Basic Protein-binding peptide) tested with Human Myelin Basic Protein (Homo sapiens, UniProt P02686). 7

Fill in Count for SRPTRVP (R3 Myelin Basic Protein-binding peptide) tested with Human Myelin Basic Protein (Homo sapiens, UniProt P02686). 9

Fill in Count for CNRVPFKQC (R3 Myelin Basic Protein-binding peptide) tested with Human Myelin Basic Protein (Homo sapiens, UniProt P02686). 7

Fill in Count for HYSPNVM (R3 Myelin Basic Protein-binding peptide) tested with Human Myelin Basic Protein (Homo sapiens, UniProt P02686). 9

Fill in Count for HMAGVNQ (R3 Myelin Basic Protein-binding peptide) tested with Human Myelin Basic Protein (Homo sapiens, UniProt P02686). 7

Fill in Count for WVPDRSL (R3 Myelin Basic Protein-binding peptide) tested with Human Myelin Basic Protein (Homo sapiens, UniProt P02686). 6

----------
target: Human MPZ (human) (UniProt P25189); experiment: phage display R3, NGS count
Sequence (P25189 30-153 limits assumed): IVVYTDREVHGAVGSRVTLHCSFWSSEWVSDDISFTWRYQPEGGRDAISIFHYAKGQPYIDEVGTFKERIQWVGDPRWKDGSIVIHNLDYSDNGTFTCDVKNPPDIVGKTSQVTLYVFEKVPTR
endpoint name: Count
The response must contain the number and no unit.

substance	quantitative readout
TMASPAK (peptide)	52

Please report Count for the following substance: LSSPLSL (peptide) 56

Please report Count for the following substance: TSPWELR (peptide) 107

Please report Count for the following substance: GLTPKLF (peptide) 48

Please report Count for the following substance: SHLASRP (peptide) 97

Please report Count for the following substance: SHSPGNK (peptide) 67

Please report Count for the following substance: KMAGHTV (peptide) 51

Please report Count for the following substance: ETTRNYG (peptide) 68

Please report Count for the following substance: WPSISRP (peptide) 57

----------
molecular target: Human MPZ (human) (UniProt P25189); assay: phage display, NGS count
endpoint name: Count
The response must contain the number and no unit.

Here is how some substances turned out for Count.
substance	Count
HPLMVPS (peptide)	41
ALPLSAS (peptide)	197
SNALSYF (peptide)	41
IEQVGWR (peptide)	38
NMSHSNR (peptide)	46

Fill in Count for TTLVVTA (peptide) tested with Human MPZ (human) (UniProt P25189). 42

Fill in Count for MYHDSVS (peptide) tested with Human MPZ (human) (UniProt P25189). 47

Fill in Count for HLDSRRH (peptide) tested with Human MPZ (human) (UniProt P25189). 46

----------
Property: Count; scope: individual substances
target: Human Myelin Basic Protein (Homo sapiens, UniProt P02686); experiment: phage display, NGS count
Sequence (P02686 135-304 limits assumed): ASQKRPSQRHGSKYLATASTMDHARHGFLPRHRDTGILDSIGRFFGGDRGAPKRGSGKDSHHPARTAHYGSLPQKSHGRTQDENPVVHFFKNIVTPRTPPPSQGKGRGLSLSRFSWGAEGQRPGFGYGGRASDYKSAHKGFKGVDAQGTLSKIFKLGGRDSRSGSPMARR
The response must contain the number and no unit.

Please report Count for the following substance: THKHMMT (peptide) 6

Please report Count for the following substance: YPTYLSY (peptide) 6

Please report Count for the following substance: SKLAGFP (peptide) 6

Please report Count for the following substance: SEGLTLL (peptide) 6

Please report Count for the following substance: SLWQTLR (peptide) 6

Please report Count for the following substance: VLSPYHN (peptide) 6

Please report Count for the following substance: ASNTSKG (peptide) 7

Please report Count for the following substance: NFAQHMQ (peptide) 9

Please report Count for the following substance: LFRRVTE (peptide) 7

Please report Count for the following substance: SNAERWR (peptide) 9

Please report Count for the following substance: AISWKGF (peptide) 6

----------
system: Human Myelin PLP; assay: Phage display library screening (Example 1, Power BI analysis), binding to Human Myelin PLP; settings: R3 Myelin PLP, NextGen sequencing count of phage sequences distinct for this target
Property: Count; scope: individual substances
The response must contain the number and no unit.

substance	quantitative readout
FPVVTRN (R3 Myelin PLP-binding peptide)	42
ATLKPYR (R3 Myelin PLP-binding peptide)	68

Please report Count for the following substance: LALYARM (R3 Myelin PLP-binding peptide) 44
